experiment: protein stability index of a GFP-peptide fusion (GPS, HEK-293T) (PSI 1-6); higher = more stable; conditions: treatment: MLN4924 1 uM, 8 h; c terminus: a fixed tail appended;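 also: 24-mer peptide tiles fused after GFP, lentivirally expressed, FACS-sorted into six equal bins by GFP/DsRed ratio, decoded by Illumina sequencing, PSI is the read-weighted mean bin number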
Please enter fulfilled where protein stability index is greater than or equal to 3, and not fulfilled where it is lower.

Solved entries:
> print(dat)
                       residue.codes  discrete.label
1    ENTLLNSQMVSTDNSLSSQNYISQ [MIA2]       fulfilled
2  ETYLQNHFAEEERSKYDYLMILRR [TENT5C]       fulfilled
3    QAGAARLEEELRQLKEEMARHLRE [PRPH]       fulfilled

Task: Determine whether this sequence has protein stability index no lower than 3: LREENKALREENRMLSKENKILQV [CBY2]
Result: fulfilled

Task: Determine whether this sequence has protein stability index no lower than 3: VHVFGDELSLVTLFRCIQNMPETL [TNFSF13B]
Result: not fulfilled

Task: Determine whether this sequence has protein stability index no lower than 3: VCESMKEQLLVLVEWAKYIPAFCE [HNF4A]
Result: not fulfilled

----------
test: protein stability index of a GFP-peptide fusion (GPS, HEK-293T) (PSI 1-6); higher = more stable; conditions: treatment: MLN4924 1 uM, 8 h; c terminus: a fixed tail appended
Please enter rule met where protein stability index is greater than or equal to 4, and rule not met where it is lower.

> print(dat)
                        residue.codes  discrete.label
1  VAGNPQDTRLRYSFFVPRPTPSTP [ADAMTS4]    rule not met
2    VVCRQLGLGFASNAFQETWYWHGD [LOXL2]    rule not met
3      QAPISAPEYTYGISNIDTTIEGTS [MFF]        rule met
4    RNDKIKHVQNQVDEVIDVMQENIT [VAMP4]        rule met
5   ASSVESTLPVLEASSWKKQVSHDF [FBXO34]    rule not met

Task: Determine whether this sequence has protein stability index no lower than 4: SGGITHDTFQKELMCFDPDTDKWI [KLHL13]
Result: rule met

Task: Determine whether this sequence has protein stability index no lower than 4: WMQVASLNEKRTFFHLSALKGYLY [KLHL13]
Result: rule not met

----------
Attribute: protein stability index
test: protein stability index of a GFP-peptide fusion (GPS, HEK-293T) (PSI 1-6); higher = more stable; conditions: treatment: DMSO; c terminus: a fixed tail appended
Just the number, please, no unit attached.

Field: example entries. Status: answers known.
> print(dat)
                        residue.codes            endpoint.name  obs.value
1  PSPMPTHRSYLGPGSTSPLETSGN [SLC6A17]  protein stability index       4.13
2     VILEVSLEGSHDTANCEACTLGIC [RTP4]  protein stability index       3.86
3     EAVFGKYGRIVEVLLMKDRETNKS [RBMX]  protein stability index       2.53
4     VEIVKSDFHKPFLGGFRHKVTGVE [IQUB]  protein stability index       2.17
5  KPPKPPDKPLMPYMRYSRKVWDQV [SMARCE1]  protein stability index       2.08
6    SRFISANLPCNKFKNRLVNIMPYE [PTPRD]  protein stability index       2.13
7    QALQKEKETLAVNYEKEEEFLTNE [CCDC6]  protein stability index       5.39
8   PANCPACREPSPKMDFKTNILLKN [TRIM43]  protein stability index       3.38

Task: Could you tell me which protein stability index is on file for EKLCIYTDNSIKPQELLEWELVVL [CCND2] ?
Result: 2.57

Task: Could you tell me which protein stability index is on file for RRFLLCLYLVGFLDLFGVSMVVPL [MFSD9] ?
Result: 2.91

Task: Could you tell me which protein stability index is on file for MTEPWLALGTSWTLPLQDRELGPE [CABP4] ?
Result: 3.54

Task: Could you tell me which protein stability index is on file for VRLDRVRGGRQKYKRRIDAENSPY [ESRRG] ?
Result: 3.81

Task: Could you tell me which protein stability index is on file for TNLTWDQVITLDQVLDEVIPIHGK [TENT5D] ?
Result: 2.47

----------
test: protein stability index of a GFP-peptide fusion (GPS, HEK-293T) (PSI 1-6); higher = more stable; settings: treatment: MLN4924 1 uM, 8 h; c terminus: a fixed tail appended
ENDPOINT NAME: protein stability index
Just the number, please, no unit attached.

> print(dat)
                       residue.codes            endpoint.name  obs.value
1   FQKGQVTRDGFKLVMASLYHIYVA [HMOX1]  protein stability index       3.12
2    CLGSLASKLSRKYVKAKKSIDKDE [FAN1]  protein stability index       2.94
3  YAVGGSDGTSPLNTVERYNPQENR [KLHL20]  protein stability index       4.79

Task: Could you tell me which protein stability index is on file for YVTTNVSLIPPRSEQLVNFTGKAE [TMEM106C] ?
Result: 2.8

Task: Could you tell me which protein stability index is on file for DDVEMKNGITQGDKLRALKSQRQP [CDC14A] ?
Result: 5.05

Task: Could you tell me which protein stability index is on file for LAIDFIDEGRLLLEFDLLIFSFGQ [SOAT2] ?
Result: 2.78

Task: Could you tell me which protein stability index is on file for VKLGPALTPHIVQYQANKVTHTLT [PPEF2] ?
Result: 2.2

Task: Could you tell me which protein stability index is on file for KSKAYTVVGTPCYISPELCEGKPY [NEK8] ?
Result: 3.03

Task: Could you tell me which protein stability index is on file for NSSPRVMQRKQSLGKPDQKDLNEN [DLC1] ?
Result: 4.88

Task: Could you tell me which protein stability index is on file for IVMCVQIKCFHEIITIGYNVYHSY [CDS2] ?
Result: 3.36

Task: Could you tell me which protein stability index is on file for CWSRDGHKLVSASTDNIVSQWDVL [RBBP5] ?
Result: 2.87

----------
Attribute: protein stability index
assay: protein stability index of a GFP-peptide fusion (GPS, HEK-293T) (PSI 1-6); higher = more stable; settings: treatment: MLN4924 1 uM, 8 h; c terminus: a fixed tail appended
Just the number, please, no unit attached.

> print(dat)
                         residue.codes  obs.value
 1    EVRKLTQRLEEMTQRMEALENRLR [MATN2]       2.91
 2  HNTTEAPGPHSAKQDSYEQGDSSQ [ZC2HC1C]       5.46
 3    GLGVLRALGSRGWEPFDWGRLLEA [FANCE]       2.47
 4    KERILLVTDKTLLICKYDFIMLSC [TPRG1]       2.61
 5    VILSEIKEAVAALPPDVTTQSVMG [TCF25]       2.65
 6     AAHPPLPLLPPAMGTEPAPSAPEA [TBX6]       5.52
 7  EGHSPGNLPKFCHECGTKYPVEWA [ZC2HC1A]       2.97
 8  LFPVFLATDYLRYKPVVLLQGLSL [SLC19A2]       2.84
 9     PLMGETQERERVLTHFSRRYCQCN [PSD2]       3.62
10    PHEDHVFLVANFSQIETLTSVFQK [MATN2]       2.35

Task: Could you tell me which protein stability index is on file for MHDAFEPVPILEKLPLQIDCLAAW [VPS39] ?
Result: 2.56

Task: Could you tell me which protein stability index is on file for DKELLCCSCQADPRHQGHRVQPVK [TRIM35] ?
Result: 4.06

Task: Could you tell me which protein stability index is on file for EKYGRAHPVFYQGTYSQALNDAKR [FAF2] ?
Result: 3.47

----------
assay: protein stability index of a GFP-peptide fusion (GPS, HEK-293T) (PSI 1-6); higher = more stable; settings: treatment: DMSO; c terminus: a fixed tail appended
ENDPOINT NAME: protein stability index
Just the number, please, no unit attached.

> print(dat)
                       residue.codes            endpoint.name  obs.value
1   EEEEEEEDEDDDSADMDESDEDDE [FBXO3]  protein stability index       5.37
2  EEKSKQFLDLMETIDKQREEMAKS [LRRC45]  protein stability index       5.28

Now for another entry.
Task: Could you tell me which protein stability index is on file for EARPIETYQVHDYLRSKLCSLYEN [PPP2R2C] ?
Result: 2.7

----------
experiment: protein stability index of a GFP-peptide fusion (GPS, HEK-293T) (PSI 1-6); higher = more stable; details: treatment: MLN4924 1 uM, 8 h; c terminus: a fixed tail appended
Please enter label 1 where protein stability index is greater than or equal to 3, and label 0 where it is lower.

Solved entries:
> print(dat)
                        residue.codes  discrete.label
1  ANMEDLTEVITASEFHPHHCNLFV [PPP2R2C]         label 0
2    AAFLALLRFLYSDEVQIGPETVMT [BTBD1]         label 0
3    AEDEEMNRMHESMKLFDSICNNKW [GNAI1]         label 1
4     WEFKLSDPDEVARRWGKRKNKPKM [ETS1]         label 1
5    AVEAGQEECAKWLLLNNANPNLSN [RIPK4]         label 1

Task: Determine whether this sequence has protein stability index no lower than 3: VDNISTLDSEIKKNSDGMEAAGVQ [CD207]
Result: label 1

Task: Determine whether this sequence has protein stability index no lower than 3: LPILGHRDYKIQASRTWCFYNTED [PTGFR]
Result: label 0

Task: Determine whether this sequence has protein stability index no lower than 3: NQGTQITVEDLFYNIATRRKALKN [MLH1]
Result: label 1
